Numbers sourced from a melting point compilation (Tetko et al.).

recorded metric: melting point

Solved entries (count: 3):
Query: # return recorded melting point for input Cc1nc(C2CCN(C(=O)OC(C)(C)C)CC2)sc1C(=O)O
Reply: 124 to 128 °C

Query: # return recorded melting point for input N#CCc1ccc(OCc2c(F)cccc2Cl)cc1
Reply: 78 to 79 °C

Query: # return recorded melting point for input CC(=O)c1ccc(OCc2ccc(F)cc2)c([N+](=O)[O-])c1
Reply: 105 to 107 °C

Now for the compound whose melting point we want.
Query: # return recorded melting point for input CCNCCS(=O)(=O)c1ccc(C)cc1
Reply: 42 to 45 °C

* * *

Measured melting point by item

Solved entries (count: 3):
Query: # return recorded melting point for input O=C(Cl)c1ccc(Oc2ccccc2)cc1
Reply: 22 to 23 °C

Query: # return recorded melting point for input O=C(C=CC(=O)OCC(F)(F)C(F)(F)C(F)(F)C(F)(F)C(F)(F)C(F)(F)C(F)(F)F)OCC(F)(F)C(F)(F)C(F)(F)C(F)(F)C(F)(F)C(F)(F)C(F)(F)F
Reply: 82 to 84 °C

Query: # return recorded melting point for input NC(=O)C1CCN(c2nccc(C(F)(F)F)n2)CC1
Reply: 194 to 196 °C

Now for the compound whose melting point we want.
Query: # return recorded melting point for input FC(F)(F)c1ccc(P(c2ccc(C(F)(F)F)cc2)c2ccc(C(F)(F)F)cc2)cc1
Reply: 72 to 75 °C

* * *

recorded metric: melting point

Query: # return recorded melting point for input NC(=S)Nc1cccc(Br)c1
Reply: 150 to 151 °C

Query: # return recorded melting point for input CS(=O)(=O)n1ccnc1
Reply: 86 to 88 °C

Query: # return recorded melting point for input O=C(O)c1cc(-c2ccccc2)on1
Reply: 192 to 200 °C

Query: # return recorded melting point for input ClC(Cl)(Br)C(Cl)(Cl)Br
Reply: 220 to 222 °C

Query: # return recorded melting point for input Brc1ccc(-c2ccccn2)s1
Reply: 87 to 89 °C

More entries:
Query: # return recorded melting point for input O=C1CCC(c2ccc(NC(=O)c3ccc(F)cc3)cc2)=NN1
Reply: 285 to 287 °C

Query: # return recorded melting point for input Cc1nc(-c2ccc(S(=O)(=O)Cl)s2)cs1
Reply: 88 to 90 °C

Query: # return recorded melting point for input Cc1ccc(S(=O)(=O)OCCc2coc3ccccc23)cc1
Reply: 61 to 62 °C

Query: # return recorded melting point for input Nc1c(Br)cc(Cl)cc1Br
Reply: 93 to 95 °C

Query: # return recorded melting point for input FC(F)(F)c1ccc2nsnc2c1
Reply: 36 to 37 °C

Query: # return recorded melting point for input OC(c1ccccc1)c1ccc(Br)cc1 (centres undefined)
Reply: 61 to 63 °C

Query: # return recorded melting point for input COC(=O)c1cc(C)nn1C(=O)OC
Reply: 111 to 112 °C

Query: # return recorded melting point for input CCCCc1nc(CO)c[nH]1
Reply: 94 to 97 °C

Query: # return recorded melting point for input O=C(c1ccccc1)c1ccc(O)c(O)c1
Reply: 144 to 148 °C

* * *

Measured melting point by item

Query: # return recorded melting point for input CC(=O)N1CCc2ccccc21
Reply: 102 to 104 °C

Query: # return recorded melting point for input O=C(O)Cc1n[nH]c(=O)c2ccccc12
Reply: 220 to 223 °C

Query: # return recorded melting point for input O=C(NC(=S)Nc1ccccn1)c1ccccc1
Reply: 144 to 147 °C

Query: # return recorded melting point for input CCCCCCCCCC[C@H](O)CO
Reply: 69 to 72 °C

Query: # return recorded melting point for input CC1(C)SC2C(N)C(=O)N2C1C(=O)O (stereo unspecified)
Reply: 198 to 200 °C

Query: # return recorded melting point for input COC(=O)C(C)(N)Cc1c[nH]c2ccccc12 (stereo unspecified)
Reply: 139 to 142 °C

* * *

Measured melting point by item

Query: # return recorded melting point for input O=C=Nc1ccc(-n2cccc2)cc1
Reply: 65 to 66 °C

Query: # return recorded melting point for input Cc1cc(C=O)no1
Reply: 31 to 33 °C

Query: # return recorded melting point for input OC(O)C(F)(F)C(F)(F)C(F)(F)C(F)(F)C(F)(F)C(F)(F)C(F)(F)C(F)(F)F
Reply: 91 to 94 °C

* * *

Measured melting point by item

Query: # return recorded melting point for input C=CCNc1nc(N)c(C(N)=O)s1
Reply: 158 to 160 °C

Query: # return recorded melting point for input Brc1cccc2cc[nH]c12
Reply: 46 to 47 °C

Query: # return recorded melting point for input Cc1nc(-c2ccc(C(=O)Cl)cc2)cs1
Reply: 120 to 122 °C

Query: # return recorded melting point for input COc1cc(C(=O)Nc2nnc(-c3ccc(Cl)cc3)o2)cc(OC)c1OC
Reply: 261 to 263 °C

Query: # return recorded melting point for input CC(C)C[C@H](NC(=O)CN)C(=O)O
Reply: 233 to 235 °C

Query: # return recorded melting point for input CN1CCN(C)c2cc(Br)ccc21
Reply: 55 to 56 °C

* * *

Measured melting point by item

Solved entries (count: 3):
Query: # return recorded melting point for input Cc1ccc([C@@H]2CC(=O)[C@@H](c3ccccc3)[C@H](c3ccc(C)cc3)N2)cc1
Reply: 148 °C

Query: # return recorded melting point for input CCCCCCCCCCCCCCCCCCCCCCCCCCCCCC[Si](C)(C)Cl
Reply: 60 to 80 °C

Query: # return recorded melting point for input C[C@]12CCC(=O)C[C@H]1CC[C@H]1[C@H]3CCC(=O)[C@@]3(C)CC[C@@H]12
Reply: 179 to 180 °C

More entries:
Query: # return recorded melting point for input Sc1nccc(-c2ccc(Cl)cc2)n1
Reply: 210 to 214 °C

Query: # return recorded melting point for input Nc1cc2ccccc2cn1
Reply: 154 to 156 °C

Query: # return recorded melting point for input CCOC(=O)c1cnc(N)nc1C
Reply: 224 to 225 °C

Query: # return recorded melting point for input Cc1cc(C)c(CC(O)c2cc3ccccc3o2)c(C)c1 (stereo not given)
Reply: 75 to 76 °C

Query: # return recorded melting point for input O=C(O)c1coc2ccccc2c1=O
Reply: 201 °C

Query: # return recorded melting point for input Fc1cccc(Cl)c1C(Cl)(Cl)Cl
Reply: 38 to 43 °C

Query: # return recorded melting point for input NC(=S)Nc1ccc(C(F)(F)F)cc1
Reply: 144 to 145 °C

Query: # return recorded melting point for input O=c1oc(=O)c2ccccc2c2ccccc12
Reply: 223 to 227 °C

Query: # return recorded melting point for input Cc1ccc(S(=O)(=O)Cl)cc1[N+](=O)[O-]
Reply: 38 to 40 °C

Query: # return recorded melting point for input O=S(=O)(Cl)c1cc(Br)c(Cl)s1
Reply: 63 to 65 °C

Query: # return recorded melting point for input CCOC(=O)C1N=C(c2ccccc2F)c2cc(Cl)ccc2NC1=O (stereo not given)
Reply: 194 °C

Query: # return recorded melting point for input Cc1cc(C)c(C2(C)CC(C(=NO)c3cc4ccccc4o3)C2)c(C)c1 (stereo not given)
Reply: 189 to 190 °C

* * *

recorded metric: melting point

Solved entries (count: 3):
Query: # return recorded melting point for input C1C2CC3CC1CC(SSC14CC5CC(CC(C5)C1)C4)(C2)C3
Reply: 225 to 228 °C

Query: # return recorded melting point for input ClCc1csc(-c2cccs2)n1
Reply: 52 to 56 °C

Query: # return recorded melting point for input BrCc1ccccc1COc1ccccc1
Reply: 53 to 59 °C

More entries:
Query: # return recorded melting point for input O=C(CCl)Nc1ccc(Cl)cc1
Reply: 168 to 170 °C

* * *

Measured melting point by item

Solved entries (count: 10):
Query: # return recorded melting point for input NC(=S)Nc1cccc(F)c1
Reply: 113 to 117 °C

Query: # return recorded melting point for input O=C(O)c1cc(N(Cc2ccccc2O)Cc2cc(O)ccc2O)ccc1O
Reply: 205 to 215 °C

Query: # return recorded melting point for input Cc1nc(-c2ccccn2)nc(Cl)c1Cl
Reply: 127 to 129 °C

Query: # return recorded melting point for input CCn1c2ccccc2c2cc(C=O)ccc21
Reply: 85 to 91 °C

Query: # return recorded melting point for input Cn1c2ccccc2c(=O)c2ccccc21
Reply: 204 to 207 °C

Query: # return recorded melting point for input O=C(O)c1cc(F)cc(C(F)(F)F)c1
Reply: 104 to 108 °C

Query: # return recorded melting point for input Oc1ccccc1/C=N/n1c(-c2ccccc2)n[nH]c1=S
Reply: 209 to 210 °C

Query: # return recorded melting point for input O=C1CCCc2occc21
Reply: 60.5 to 61.5 °C

Query: # return recorded melting point for input O=C(O)c1ccc(-c2ccc([N+](=O)[O-])cc2)o1
Reply: 255 to 257 °C

Query: # return recorded melting point for input FC(F)(F)c1cc(C(F)(F)F)c(C(F)(F)F)cc1C(F)(F)F
Reply: 73 to 74 °C

More entries:
Query: # return recorded melting point for input S=C(NC1CCCCC1)C(=S)NC1CCCCC1
Reply: 150 to 152 °C

Query: # return recorded melting point for input CCCCOc1ccc(N)cc1[N+](=O)[O-]
Reply: 60 to 64 °C

Query: # return recorded melting point for input O=C(NC(=S)c1ccc[nH]1)Nc1ccccc1
Reply: 205 to 208 °C
